These entries and their values trace back to patent US20230159453A1.

Below: a set of entries, each annotated with reported pIC50.
# Target Entity: SARS2 protease (Severe acute respiratory syndrome coronavirus 2)
# Experiment: SARS-CoV-2 protease inhibition assay (SARS2 FRET protease assay)
# Format: biochemical
# Assay Setup: SARS-CoV-2 protease 25 nM, FRET, peptide substrate 1.3 μM, 30 minutes at 30° C., compounds 20 μM to 1.0 nM; read-out: IC50
Here pIC50 is given on a logarithmic scale as minus log10 of the concentration in mol/L.

# example entries with known answers
Query: What value of measured pIC50 is listed for CC(C)(c1cccc(Cl)c1)C(OC(=O)N[C@@H](CC1CCCCC1)C(=O)N[C@H](C=O)C[C@@H]1CCNC1=O)c1ccccc1 (stereo partly drawn) [Compound C110] ?
Reply: 8.85

Query: For CC(C)C[C@H](NC(=O)OC1CCCC1Cc1ccccc1)C(=O)NC(C[C@@H]1CCNC1=O)C(=O)C(=O)NC1CC1 (stereo in doubt) [Compound C89] , what is its reported pIC50?
Reply: 6.52

Query: pIC50 for COc1cccc2[nH]c(C(=O)N[C@@H](CC3CCCCC3)C(=O)NC(CC3CC4(CCN(C(C)=O)CC4)NC3=O)C(=O)C(N)=O)cc12 (stereo partly drawn) [Compound C117] ?
Reply: 7.26

Query: # pIC50 lookup, item CC(C)C[C@H](NC(=O)O[C@@H](c1ccccc1)C(C)(C)c1cccc(Cl)c1)C(=O)N[C@H](C=O)C[C@@H]1CCNC1=O [Compound C275]
Reply: 7.70

Query: Request the reported pIC50 associated with CC(C)C[C@H](NC(=O)OC1(Cc2ccccc2)CCC1)C(=O)N[C@@H](C[C@@H]1CCNC1=O)C(=O)CCl [Compound C194]
Reply: 6.31

Query: I have this molecule here, CCOP(=O)(OCC)C(O)C(CC1CC2(CCN(C(C)=O)CC2)NC1=O)NC(=O)[C@H](CC(C)C)NC(=O)OCC1CCC(F)(F)CC1 (stereo partly drawn) [Compound C95] , and I need its recorded pIC50.
Reply: 5.15

Query: Look at this molecule and give its reported pIC50. CC(C)C[C@H](NC(=O)OC1(Cc2ccccc2)CCC1)C(=O)N[C@@H](C[C@@H]1CCNC1=O)C(O)S(=O)(=O)O (stereo partly drawn) [Compound C63]
Reply: 5.80

Query: // pIC50 lookup, key: CC(C)C[C@H](NC(=O)OC(CCc1ccccc1)c1ccccc1)C(=O)N[C@H](C=O)C[C@@H]1CCNC1=O (stereo partly drawn) [Compound C259]
Reply: 7.30

Others:
Query: Please give the measured pIC50 for this molecule: CC(C)(C1CCCCC1)C(NC(=O)OCc1ccccc1)C(=O)N[C@H](C=O)C[C@@H]1CCNC1=O (stereo partly drawn) [Compound C140]
Reply: 6.39

Query: I am curious: what pIC50 value has been reported for COc1cccc2[nH]c(C(=O)N[C@@H](CC(C)C)C(=O)NC(CC3CC4(CCCCC4)NC3=O)C(=O)CO)cc12 (stereo partly drawn) [Compound C233] ?
Reply: 7.70

Query: Using the record for CC(C)C[C@H](NC(=O)O[C@H](c1ccccc1)C(C)(C)c1cccc(Cl)c1)C(=O)N[C@H](C=O)C[C@@H]1CCNC1=O [Compound C276] , report its pIC50.
Reply: 7.22

Query: Which value of pIC50 has been reported for CC(C)C[C@H](NC(=O)OCC(C)(C)c1cccc(Cl)c1)C(=O)NC(C)(C=O)CC1CCNC1=O (stereo partly drawn) [Compound C83] in the records?
Reply: 5.89

Query: pIC50 for CC(C)(c1cccc(Cl)c1)[C@H](OC(=O)N[C@@H](CC1CCCCC1)C(=O)N[C@@H](C[C@@H]1CCNC1=O)C(=O)C(N)=O)c1cccc(F)c1 [Compound C183] ?
Reply: 6.60

Query: Fill in: pIC50 of CC1(C)CC(CC(C=O)NC(=O)[C@H](CC2CCCCC2)NC(=O)OC(Cc2cccc(Cl)c2)c2ccccc2)C(=O)N1 (stereo partly drawn) [Compound C180] is ___
Reply: 7.25

Query: If you can, please state the reported pIC50 value of CC(C)(c1cccc(Cl)c1)C(OC(=O)N[C@@H](CC1CCCCC1)C(=O)N[C@@H](C[C@@H]1CCNC1=O)C(=O)C(=O)O)c1ccc2ccccc2c1 (stereo partly drawn) [Compound C235] .
Reply: 7.15

Query: // returns reported pIC50 for input CCOP(=O)(OCC)C(O)C(CC1CC(Cc2ccccc2)NC1=O)NC(=O)[C@H](CC1CCCCC1)NC(=O)OCc1cccc(Cl)c1 (stereo partly drawn) [Compound C41]
Reply: 6.51

====

# Target Entity: SARS2 protease (Severe acute respiratory syndrome coronavirus 2, UniProt P0DTD1)
# Experiment: SARS-CoV-2 protease inhibition assay (SARS2 FRET protease assay)
# Type: biochemical
# Assay Setup: IC50 (μM)
Measured Parameter: IC50 (µM)
Report as a plain number; the unit µM is understood.

Query: For the molecule CC(C)C[C@H](NC(=O)OC1CCCC1Cc1ccccc1)C(=O)N[C@@H](C[C@@H]1CCNC1=O)C(=O)CCl (stereo partly shown) , what IC50 is on record?
Reply: 0.196

====

# Target Entity: SARS2 protease (Severe acute respiratory syndrome coronavirus 2, UniProt P0DTD1)
# Experiment: SARS-CoV-2 protease inhibition assay (SARS2 FRET protease assay)
# Assay type: biochemical
# Assay Setup: SARS-CoV-2 protease 25 nM, FRET, peptide substrate 1.3 μM, 30 minutes at 30° C., compounds 20 μM to 1.0 nM; read-out: IC50
pIC50: −log10 of the molar value.
Response field class: string, computed from recorded pIC50 by ranges low end = under 6, middle = from 6 up to 9, high end = 9 and over

A selection of reference data follows.
Query: Which band does CC(C)(c1cccc(Cl)c1)C(OC(=O)N[C@@H](CC1CCCCC1)C(=O)N[C@H](C=O)C[C@@H]1CCNC1=O)c1cccc(Cl)c1 (stereo partly drawn) fall in?
Reply: high end

Query: Hi there! Could you help me figure out the category for Cc1cccc(C(OC(=O)N[C@@H](CC2CCCCC2)C(=O)N[C@H](C=O)C[C@@H]2CCNC2=O)C(C)(C)c2cccc(Cl)c2)c1 (stereo partly drawn) please?
Reply: high end

Query: Category of O=C[C@H](CCC(=O)N1CCOc2ccc(Cl)cc2C1)NC(=O)[C@H](CC1CCCCC1)NC(=O)OCc1cccc(Cl)c1 , please.
Reply: low end

Query: Which class holds CCOP(=O)(OCC)C(O)[C@H](CCC(=O)N1CCOc2ccc(Cl)cc2C1)NC(=O)[C@H](CC1CCCCC1)NC(=O)OCc1cccc(Cl)c1 (stereo partly drawn) ?
Reply: low end

---
Query: For this compound, which bin applies? CCOP(=O)(OCC)C(O)C(CC1CC2(CCN(C(C)=O)CC2)NC1=O)NC(=O)[C@H](Cc1cccc(F)c1)NC(=O)OCc1cccc(Cl)c1 (stereo partly drawn)
Reply: low end

Query: Form field 'band' for O=C(N[C@@H](CC1CCCCC1)C(=O)N[C@@H](C[C@@H]1CCNC1=O)C(=O)C(=O)NC1CC1)OC(Cc1cccc(Cl)c1)c1cccc(Cl)c1 (stereo partly drawn)
Reply: low end

Query: Tag the class for CC(C)C[C@H](NC(=O)OC1(Cc2cccc(Cl)c2)CCC1)C(=O)N[C@@H](CC1CC2(CCOCC2)NC1=O)C(=O)C(=O)NC1CC1 (stereo partly drawn)
Reply: low end

Query: Which category does the recorded pIC50 put CC(C)C[C@H](NC(=O)OC(c1ccc(Cl)cc1)C(C)(C)c1cccc(Cl)c1)C(=O)N[C@@H](C[C@@H]1CCNC1=O)C(=O)C(=O)NC1CC1 (stereo partly drawn) in?
Reply: middle

Query: Textbook exercise: identify the category of the compound given here, CS(=O)(=O)N1CCC2(CC1)CC(CC(C=O)NC(=O)[C@H](CC1CCCCC1)NC(=O)OC1CCCC1Cc1cccc(Cl)c1)C(=O)N2 (stereo partly drawn) , according to its measured value.
Reply: middle

Query: Band for CC(C)(C)C(=O)N1CCC2(CC1)CC(CC(C=O)NC(=O)[C@H](CC1CCCCC1)NC(=O)OCc1cccc(Cl)c1)C(=O)N2 (stereo partly drawn) ?
Reply: middle

Query: Assign a category based on measured pIC50 for CCOP(=O)(OCC)C(O)[C@H](CCC(=O)N1CCOc2ccccc2C1)NC(=O)[C@H](CC1CCCCC1)NC(=O)N1CCc2ccccc21 (stereo partly drawn) and give only the class name.
Reply: low end

====

# Target Entity: SARS2 protease (Severe acute respiratory syndrome coronavirus 2, UniProt P0DTD1)
# Experiment: SARS-CoV-2 protease inhibition assay (SARS2 FRET protease assay)
# Type: biochemical
# Assay Setup: SARS-CoV-2 protease 25 nM, FRET, peptide substrate 1.3 μM, 30 minutes at 30° C., compounds 20 μM to 1.0 nM; read-out: IC50
Threshold-based label: IC50 under 1000 nM gives YES, IC50 not under 1000 nM gives NO.

Query: Find out if reported IC50 for CC(=O)N1CC2(CC(CC(C=O)NC(=O)[C@H](CC(C)C)NC(=O)OCc3cccc(Cl)c3)C(=O)N2)C1 (stereo partly shown) [Compound C102] is less than 1000 nM
Reply: YES

Query: # check: IC50 < 1000 nM for CC(C)C[C@H](NC(=O)OC(C)(C)Cc1ccccc1)C(=O)N[C@H](C=O)C[C@@H]1CCNC1=O [Compound C46]
Reply: NO

Query: # check: IC50 < 1000 nM for CC(C)C[C@H](NC(=O)OCC(C)(C)c1cccc(Cl)c1)C(=O)N[C@@H](C[C@@H]1CCNC1=O)C(O)S(=O)(=O)O (stereo partly shown) [Compound C72]
Reply: YES

Query: Lab note: confirm whether the reported IC50 for this compound is below 1000 nM, equality not counting. compound: CCCCCOC(=O)N[C@@H](CC1CCCCC1)C(=O)N[C@H](C=O)CCC(=O)N1CCOc2ccccc2C1 [Compound C16]
Reply: NO

Query: Input CC(C)(c1cccc(Cl)c1)[C@H](OC(=O)N[C@@H](CC1CCCCC1)C(=O)N[C@@H](C[C@@H]1CCNC1=O)C(=O)C(=O)NC1CC1)c1cccc(F)c1 [Compound C185] ; condition: IC50 strictly below 1000 nM. Does it hold?
Reply: YES

Query: Criterion: IC50 strictly below 1000 nM. Is it met by CC(C)C[C@H](NC(=O)OCCCc1ccccc1)C(=O)N[C@@H](C[C@@H]1CCNC1=O)C(=O)C(N)=O [Compound C256] ?
Reply: YES

Query: For this compound, is IC50 lower than 1000 nM? CC(C)C[C@H](NC(=O)OC(Cc1cccc(Cl)c1)c1ccccc1)C(=O)N[C@H](C=O)C[C@@H]1CCNC1=O (stereo partly shown) [Compound C104]
Reply: YES
